- Tested on: Ba/F3 EGFR ASV ins cells
- testProtocol: Cell proliferation, Ba/F3 EGFR ASV ins (CellTiter-Glo, 72 h);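 further: IL3-independent Ba/F3 cells transduced with EGFR V769_D770insASV, cellular ATP luminescence after compound exposure, growth relative to DMSO control with the day-0 baseline reading subtracted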
- Assay type: cell-based
- conditionsUsed: Ba/F3 EGFR, 72 h, Ba/F3 EGFR ASV ins, 72 h proliferation; read-out: EGFR Exon20 ASV insertion GI50
Measured log10 of GI50 by item
measuredEndpoint: log10 of GI50 (log10 of the value in µM)

>  <compound>
C=CC(=O)Nc1cc(Nc2ncnc(Nc3cc(F)c(Cl)cc3C(C)(C)O)n2)c(OC)cc1N1CC[C@@H]1CN(C)C

>  <log10 of GI50>
-1.46

$$$$
>  <compound>
C=CC(=O)Nc1cc(Nc2ncnc(Nc3cc(F)c(F)cc3C(C)(C)O)n2)c(OC)cc1N(C)C[C@H]1CCCN1C

>  <log10 of GI50>
-1.51

$$$$
>  <compound>
C=CC(=O)Nc1cc(Nc2ncnc(Nc3cc(F)c(Cl)c(F)c3C(C)(C)O)n2)c(OC)cc1N(C)CCN(C)C

>  <log10 of GI50>
-0.94

$$$$
>  <compound>
[2H]C([2H])([2H])N(CCN(C)c1cc(OC)c(Nc2ncnc(Nc3cc(F)c(Cl)cc3C(C)(C)O)n2)cc1NC(=O)C=C)C([2H])([2H])[2H]

>  <log10 of GI50>
-1.62

$$$$
>  <compound>
C=CC(=O)Nc1cc(Nc2ncnc(Nc3cc(F)c(F)cc3C(C)(C)O)n2)c(OC)cc1N1CCOC[C@@H]1CN(C)C

>  <log10 of GI50>
-1.61

$$$$
>  <compound>
C=CC(=O)Nc1cc(Nc2ncnc(Nc3cc(Cl)c(F)cc3C(C)(O)CC)n2)c(OC)cc1N1CC[C@@H](N(C)C)C1 (single isomer, unassigned)

>  <log10 of GI50>
-1.15

$$$$
>  <compound>
Cc1cc(C(=O)Nc2nc3cccc(Cl)c3n2[C@@H]2CCCCN(C(=O)/C=C/CN(C)C)C2)ccn1 [EGF816, reference compound]

>  <log10 of GI50>
-0.30

$$$$
>  <compound>
C=CC(=O)Nc1cc(Nc2ncnc(Nc3cc(Cl)c(F)cc3C(C)(C)O)n2)c(OC)cc1N1CC(CN(C)C)C1

>  <log10 of GI50>
-1.12

$$$$
>  <compound>
C=CC(=O)Nc1cc(Nc2ncnc(Nc3cc(F)c(Cl)cc3C(C)(C)O)n2)c(OC)cc1N1CC[C@@H](N(C)C)C1

>  <log10 of GI50>
-1.45

$$$$
>  <compound>
C=CC(=O)Nc1cc(Nc2nccc(Nc3cc(Cl)c(Cl)cc3C(C)(C)O)n2)c(OC)cc1N1CC[C@@H]1CN(C)C

>  <log10 of GI50>
-1.05

$$$$
>  <compound>
C=CC(=O)Nc1cc(Nc2ncnc(Nc3cc(F)c(F)cc3C(C)(O)CC)n2)c(OC)cc1N1CCC[C@H]1CN(C)C (stereo partly shown)

>  <log10 of GI50>
-0.60

$$$$
>  <compound>
C=CC(=O)Nc1cc(Nc2ncnc(Nc3cc(Cl)c(F)cc3C(C)(C)O)n2)c(OC)cc1N1CCC[C@@H]1CN(C)C

>  <log10 of GI50>
-2.04

$$$$
>  <compound>
C=CC(=O)Nc1cc(Nc2nccc(Nc3cc(Cl)c(F)cc3C(C)(C)O)n2)c(OC)cc1N1CC[C@@H](N(C)C)C1

>  <log10 of GI50>
-1.08

$$$$
